- System Under Test: Grb2 SH2 (UniProt P62993)
- Sequence (P62993 whole entry, looked up): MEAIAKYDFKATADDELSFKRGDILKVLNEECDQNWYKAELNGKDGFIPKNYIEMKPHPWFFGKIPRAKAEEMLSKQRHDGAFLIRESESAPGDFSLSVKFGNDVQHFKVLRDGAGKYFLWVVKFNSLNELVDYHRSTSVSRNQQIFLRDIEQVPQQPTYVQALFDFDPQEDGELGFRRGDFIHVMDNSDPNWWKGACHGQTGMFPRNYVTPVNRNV
- Protocol Text: SH2 binding enrichment of the phosphorylated peptide, bacterial display (enrichment ratio); higher = better substrate or ligand; peptides without Tyr show the background
SH2 binding enrichment vs 1: at or above is 1, below is 0.

Input: Could you please find out whether PAIYTYDEYKK [COL8A2_Y648_T645I] has SH2 binding enrichment that meets 1 or exceeds it?
Output: 0

Input: Tell me whether SH2 binding enrichment is at least 1 here: IAKNPYDPPGR
Output: 0

Input: Is reported SH2 binding enrichment greater than or equal to 1 here: KDHPDYEFQPR [SOX9_Y172_K173E_YF]
Output: 0

Input: Could you tell me if the measured SH2 binding enrichment of LAVNPYGPPDL reaches 1 or more?
Output: 0

Input: Determine whether measured SH2 binding enrichment meets or exceeds 1 for LQLLGHRPVYS [CHST6_Y358_Y358H]
Output: 1

Input: Would you say QMVDMYASSFM [AVPR2_Y124_G122D_YF] shows SH2 binding enrichment at minimum 1?
Output: 1

Input: # bool: SH2 binding enrichment of KILPEYLSNWT [AIFM1_Y347] >= 1
Output: 1

Input: hey, is SH2 binding enrichment for this one >= 1? SVTCTHSPALN [TP53_Y126_Y126H]
Output: 0

Input: Please indicate if the recorded SH2 binding enrichment for LEHCQYVTEKV [ALDOB_Y204] meets or exceeds 1.
Output: 0

Input: Tell me whether SH2 binding enrichment is at least 1 here: SRGSSYSSIPK [FLNC_Y2625]
Output: 0

Input: Reported SH2 binding enrichment reaches at least 1 for SSYPDYLAAVD [GLB1_Y154_D151Y] ?
Output: 0

Input: Hello, I need to know if QPGDICHQTWA [GBA_Y244_Y244C] has measured SH2 binding enrichment not below 1. Thanks!
Output: 0

Input: Would you say MSDVPYVMNRG [ACAT1_Y161_N158D] shows SH2 binding enrichment at minimum 1?
Output: 1

Input: Assess whether reported SH2 binding enrichment for GLAKEYTDPET [CSNK1G2_Y195_I196T] sits at 1 or higher.
Output: 0

Input: Given TSSGGYRRTPS [ABI1_Y333] , state whether its SH2 binding enrichment is at least 1.
Output: 0

Input: Is SH2 binding enrichment at least 1? Consider QDDTVYMGKVT [DCTN1_Y1244]
Output: 1

Input: # check: SH2 binding enrichment of KKHIPYKEHKS [CSNK1G1_Y205_R206K] is greater than or equal to 1
Output: 1

Input: Does SH2 binding enrichment meet or surpass 1 for PIQLFYTRRNT [GHR_Y86] ?
Output: 0

Input: Assess whether reported SH2 binding enrichment for EKEKKYMLPLD [DNM2_Y563] sits at 1 or higher.
Output: 0

Input: Tell me whether SH2 binding enrichment is at least 1 here: PCPANYFAFKI [FAM3D_Y65]
Output: 1

Input: Entry QGIYGYHHYMQ [UFSP2_Y287] : is its SH2 binding enrichment no less than 1?
Output: 1

Input: Could you tell me if the measured SH2 binding enrichment of NGRQCYSCKGN [PLAUR_Y217] reaches 1 or more?
Output: 0

Input: Is SH2 binding enrichment for GVASDYKCVDP [VPS13B_Y1991_I1994V] at or above 1?
Output: 0

Input: Assess whether reported SH2 binding enrichment for RAYSWYQHQRA [NDST1_Y714] sits at 1 or higher.
Output: 1

Input: Exam item: decide whether the reported SH2 binding enrichment for NGEDLYAGSTD [XRCC1_Y515_P514L] is at least 1.
Output: 0

Input: Given LSIDRYHAIVF [NPSR1_Y147_YF] , state whether its SH2 binding enrichment is at least 1.
Output: 0

Input: Is the recorded value of SH2 binding enrichment equal to or greater than 1 for this sequence? VPLATYMRIFK [RPL21_Y30_YF]
Output: 0

Input: Does GEKKAYVRLAP [RPL23A_Y137] have a reported SH2 binding enrichment of at least 1?
Output: 1

Input: Entry HSLRDYKEALM [ADA2_Y337_H335R] : is its SH2 binding enrichment no less than 1?
Output: 0

---

- Tested on: c-Abl (mouse)
- Protocol Text: phosphorylation enrichment, bacterial display (enrichment ratio); higher = better substrate or ligand; peptides without Tyr show the background
Rule: True for phosphorylation enrichment not less than 0.6, False for anything less.

Input: Decide: is the reported value of phosphorylation enrichment for KVDKEYEVGVR [GHR_Y226_R229G] equal to or greater than 0.6?
Output: True

Input: Would you say TSSSSYFDEPV [ARFGAP3_Y356] shows phosphorylation enrichment at minimum 0.6?
Output: True

Input: Answer whether phosphorylation enrichment of EVVGGYSVHNA [MLH1_Y183_R182G] is greater than or equal to 0.6.
Output: True

Input: Is the recorded value of phosphorylation enrichment equal to or greater than 0.6 for this sequence? QRRFVYFFSFL [PTEN_Y176_YF]
Output: True

Input: Is phosphorylation enrichment at least 0.6? Consider HNELFYEAAEH [VANGL1_Y345_E347A_YF]
Output: True

Input: Is phosphorylation enrichment for RAYSWYQHQRA [NDST1_Y714] at or above 0.6?
Output: True

Input: Is reported phosphorylation enrichment greater than or equal to 0.6 here: SLFPGYNFRFA [P2RX7_Y291_YF]
Output: False

Input: # check: phosphorylation enrichment of GGDQPYSGAGD [TYRO3_Y828_R824G] is greater than or equal to 0.6
Output: False

Input: Please tell me: is the sequence LYSDHYSPSGR [TMPRSS12_Y23] at or over 0.6 in terms of phosphorylation enrichment?
Output: True

Input: Does TQNGVYSAANY [DDX5_Y535] have a reported phosphorylation enrichment of at least 0.6?
Output: True

Input: I'd appreciate it if you could say whether RFVTRSIFNRE [HLA-DQB1_Y62_Y62S_YF] has phosphorylation enrichment at least equal to 0.6.
Output: False

---

So I've got a bunch of sequences here, and I need their phosphorylation enrichment values.
- System Under Test: Jak2 (UniProt O60674)
- Sequence (O60674 whole entry, looked up): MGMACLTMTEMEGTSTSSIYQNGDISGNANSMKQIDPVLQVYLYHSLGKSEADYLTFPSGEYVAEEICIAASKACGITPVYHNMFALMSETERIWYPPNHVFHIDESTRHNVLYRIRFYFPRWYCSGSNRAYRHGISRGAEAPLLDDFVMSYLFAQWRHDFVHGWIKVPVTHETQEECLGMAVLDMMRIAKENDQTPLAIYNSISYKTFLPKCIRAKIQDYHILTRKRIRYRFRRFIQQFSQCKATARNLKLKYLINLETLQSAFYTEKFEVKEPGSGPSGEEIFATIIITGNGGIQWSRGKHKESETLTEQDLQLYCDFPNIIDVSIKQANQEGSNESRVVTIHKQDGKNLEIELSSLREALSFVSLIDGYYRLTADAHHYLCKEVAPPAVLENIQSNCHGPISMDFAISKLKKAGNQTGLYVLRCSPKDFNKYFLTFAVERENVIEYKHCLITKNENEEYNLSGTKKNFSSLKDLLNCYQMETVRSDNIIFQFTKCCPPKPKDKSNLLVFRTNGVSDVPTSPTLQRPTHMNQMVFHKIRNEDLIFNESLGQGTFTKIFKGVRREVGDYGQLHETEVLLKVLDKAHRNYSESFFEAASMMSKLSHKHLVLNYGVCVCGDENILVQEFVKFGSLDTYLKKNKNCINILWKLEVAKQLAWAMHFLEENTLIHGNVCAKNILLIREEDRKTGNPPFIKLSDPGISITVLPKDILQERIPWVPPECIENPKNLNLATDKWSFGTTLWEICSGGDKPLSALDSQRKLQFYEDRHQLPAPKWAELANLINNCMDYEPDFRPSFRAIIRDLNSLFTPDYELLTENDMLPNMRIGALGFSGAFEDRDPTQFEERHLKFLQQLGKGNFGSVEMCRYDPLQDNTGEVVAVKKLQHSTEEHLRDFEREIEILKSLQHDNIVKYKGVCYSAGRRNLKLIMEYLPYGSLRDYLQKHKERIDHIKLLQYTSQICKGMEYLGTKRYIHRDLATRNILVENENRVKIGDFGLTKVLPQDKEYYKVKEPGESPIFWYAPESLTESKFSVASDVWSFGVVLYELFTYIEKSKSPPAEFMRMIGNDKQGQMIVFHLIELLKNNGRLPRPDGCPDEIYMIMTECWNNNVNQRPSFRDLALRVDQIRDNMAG
- Protocol Text: phosphorylation enrichment, bacterial display (enrichment ratio); higher = better substrate or ligand; peptides without Tyr show the background
Answer with a bare number; do not write a unit.

Input: Can you look up the measured phosphorylation enrichment of FVPAAYVKKLD [SPTAN1_Y1020] for me?
Output: 0.731

Input: Please give the measured phosphorylation enrichment for this sequence: ALPVFYAATIA [SLC20A2_Y187]
Output: 0.886

Input: Which phosphorylation enrichment is reported for this sequence? VFFGSYSRPFG [NKAP_Y104_YF]
Output: 1.12

Input: Requested read-out: phosphorylation enrichment. Entry: QLQTTYPSSDN [MAX_Y115_N114T]
Output: 0.853

Input: Could you share which phosphorylation enrichment value was measured for THEVRYISAGQ [SLCO4A1_Y77_V78I] ?
Output: 0.669

Input: Which phosphorylation enrichment value belongs to SSFDIYHLSRE [KIR3DL2_Y253_YF] ?
Output: 0.817

Input: What value of measured phosphorylation enrichment is listed for DLRGIYQKLVI ?
Output: 0.869

Input: Fill in the blank: the reported phosphorylation enrichment of ALSDGYWVVSN [TPP1_Y459] is ____.
Output: 1.79

Input: Look at this sequence and give its reported phosphorylation enrichment. WIPIQYLIISE [NOG_Y222_P223L]
Output: 1.2

Input: What value of measured phosphorylation enrichment is listed for RTTIHYNYMCN [TP53_Y234_C229R] ?
Output: 1.57

Input: Given LLGFLYFFVCS [SLC34A2_Y109] , state its recorded phosphorylation enrichment.
Output: 2.88

Input: For LLKAKYELLNA [POLR3A_Y714] , what is its reported phosphorylation enrichment?
Output: 0.707

Input: Quick one: phosphorylation enrichment of VFSIDYFRVGG [NTRK2_Y706_T704I_YF] ?
Output: 5.86

Input: Which phosphorylation enrichment value is on record for ARSMEYLAEQK [MST1R_Y1198] ?
Output: 1.08

---

Assign phosphorylation enrichment to each entry below.
- System: c-Src
- Protocol Text: phosphorylation enrichment, bacterial display (enrichment ratio); higher = better substrate or ligand; peptides without Tyr show the background
Kindly provide the number alone.

Input: GET /values?readout=phosphorylation enrichment&item= SSLMKYQQNVS [EGFEM1P_Y160_P157L]
Output: 0.363

Input: Need phosphorylation enrichment of AEDKPYAELWT [MPI_Y46_M51T] , thanks.
Output: 2.54

Input: Sample SRGSSYSSIPK [FLNC_Y2625] — what was its phosphorylation enrichment?
Output: 0.444

Input: Quick check: phosphorylation enrichment of VSRGRYRPEEC [B4GALT4_Y113_Q116E] ?
Output: 0.562

Input: Endpoint output: phosphorylation enrichment of PEFVVYKPQME [CCRL2_Y170] . Value?
Output: 0.783

Input: If you can, please state the reported phosphorylation enrichment value of CNRADYSKLAP [GNE_Y22] .
Output: 0.412

Input: Item under review: KILAKYLLETS [NAMPT_Y175] . Reported phosphorylation enrichment?
Output: 0.395

Input: Which phosphorylation enrichment value belongs to DGTIVCTGLET [USH2A_Y4487_Y4487C] ?
Output: 0.499

Input: # phosphorylation enrichment lookup, item ILTLKYPIEHG [ACTA1_Y71]
Output: 0.376

Input: Bench note: what phosphorylation enrichment did DTLASYLDKVR [KRT12_Y139_R135T] show?
Output: 0.364

Input: Look up phosphorylation enrichment: VGTKQYMAPEV [ACVRL1_Y375_R374Q]
Output: 0.598

Input: # lookup: phosphorylation enrichment of RSHRSYSCQVM [IGLL1_Y192_R189H]
Output: 0.604

Input: Recorded phosphorylation enrichment for LSQDVYEEDSY [RET_Y900_R897Q] , please?
Output: 0.856

Input: Record request: phosphorylation enrichment value, item ITRDIYETDFF [INSR_Y1185_M1180I_YF]
Output: 1.75

Input: Please look up its phosphorylation enrichment: PGVNYYFQVSA
Output: 0.692

Input: Bench note: what phosphorylation enrichment did IDDNEYAYLKA [HNF4A_Y286] show?
Output: 0.677

Input: # get_value(readout='phosphorylation enrichment', item= LSDGPYSSPFE [EPOR_Y485_N487S_YF] )
Output: 0.698

Input: Endpoint output: phosphorylation enrichment of KTVQDYLEKFF [MMP8_Y36_YF] . Value?
Output: 0.446

Input: Please give the measured phosphorylation enrichment for this sequence: ALEQKYWALGQ [MAP1A_Y1555]
Output: 1.82

Input: Given NDKLCYEVSSP [CDH13_Y66_R65C] , state its recorded phosphorylation enrichment.
Output: 0.596

Input: Item under review: AKRKGYDMQVD [NEB_Y2770_R2773Q] . Reported phosphorylation enrichment?
Output: 0.404

Input: # lookup: phosphorylation enrichment of ITVPAYFNDLQ [HSPA9_Y196_S200L]
Output: 0.468

Input: Please report the recorded phosphorylation enrichment for LGSNGYKKLLK [SEPSECS_Y334] .
Output: 0.755

Input: Need phosphorylation enrichment, item SAEEDYKADAK [KCNT1_Y876_M877K]
Output: 0.513

Input: Query: phosphorylation enrichment; subject: NNIDFYKNTTN [FGFR2_Y657_K659N_YF]
Output: 0.369

Input: Which phosphorylation enrichment is reported for this sequence? AVISVYDLVAF [PSEN1_Y256_V261F]
Output: 5.87

Input: Which phosphorylation enrichment value belongs to LAEMNYVHQDL [EPHB1_Y740_R743Q] ?
Output: 0.411

Input: Looking for the measured phosphorylation enrichment of GCRSKYVGLWG [KCNQ1_Y184] , can you help?
Output: 0.452

Input: Returns the measured phosphorylation enrichment for the input sequence. Input: RNPLRYTSILT [OR51B6_Y130_S126N]
Output: 0.65

Input: For the sequence SARFRYLMAEK [LDHB_Y173] , what phosphorylation enrichment is on record?
Output: 0.436

Input: phosphorylation enrichment for LNWIYYKDQTG [RS1_Y166] ?
Output: 1.06

Input: What value of measured phosphorylation enrichment is listed for WKEIEYEVVPD [CPS1_Y634_R638P] ?
Output: 0.479

Input: I am curious: what phosphorylation enrichment value has been reported for GTHCHYKAPIV [FZD9_Y569_T573I] ?
Output: 0.395

Input: Form field: reported phosphorylation enrichment of DDPRTYQKFGF [OAS1_Y362_R361T_YF]
Output: 0.693

Input: Entry under review: NGRQCYSCKGN [PLAUR_Y217] . Reported phosphorylation enrichment?
Output: 0.346

Input: What value of measured phosphorylation enrichment is listed for VFSIDYFRVGG [NTRK2_Y706_T704I_YF] ?
Output: 0.649

Input: Name the reported phosphorylation enrichment value associated with the sequence IRQDHYESLKE [MTR_Y921]
Output: 0.48

Input: Name the recorded phosphorylation enrichment for CITIHYNFMCN [TP53_Y234_T230I_YF] .
Output: 0.607

Input: Name the reported phosphorylation enrichment value associated with the sequence GGPAGYLRRAS [PKLR_Y38]
Output: 0.429

Input: Endpoint output: phosphorylation enrichment of MKALGYFAVVT [OPA1_Y498] . Value?
Output: 0.436

Input: // phosphorylation enrichment lookup, key: VHVEVYDRPSP
Output: 0.597

Input: Give the measured phosphorylation enrichment of EVEPRYVVLFD [ERCC4_Y577_YF] .
Output: 0.667

Input: Could you share which phosphorylation enrichment value was measured for VTQEQYELFCE [CBL_Y368_YF] ?
Output: 0.744

Input: What value of measured phosphorylation enrichment is listed for LLKAKYELLNA [POLR3A_Y714] ?
Output: 0.405

Input: Sample SVCPDYDLCSV [SQSTM1_Y148] — what was its phosphorylation enrichment?
Output: 0.87

Input: I'd like to know its phosphorylation enrichment. The sequence in question is VFFGSYSRPFG [NKAP_Y104_YF]
Output: 0.584

Input: Which phosphorylation enrichment reading was recorded for the sequence CNPLRYPTIMI [OR6K6_Y160] ?
Output: 0.464

Input: What value of phosphorylation enrichment has been recorded for this entry: WIPIQYLIISE [NOG_Y222_P223L]
Output: 0.457
